Target: Apoptosis regulator Bcl-2 (Homo sapiens)
Assay: Inhibition of biotin-linker-Beclin 1 BH3 peptide binding to human C-terminal 6His-tagged Bcl-2 (1 to 218 residues) expressed in Escherichia coli BL21 Star (DE3) pLysS measured after 3 hrs by AlphaLISA assay
ATTRIBUTE MEASURED: log10 IC50 (log10 of the value in nM)
Recall that a logarithmic scale is used here: each number is log10 of IC50 in nM.

Past entries and their recorded results:
compound="CC(C)COC(=O)Nc1ccc(C2=NN(C(=O)c3ccc(Br)cc3)C(c3ccccc3)C2)cc1 (racemic)" attribute_measured="log10 IC50" numeric_value=2.21
compound="CC1C(c2ccc(NC(=O)OC(C)(C)C)cc2)=NN(C(=O)c2ccc(Br)cc2)C1c1ccccc1 (racemic)" attribute_measured="log10 IC50" numeric_value=1.44
compound="CCOC(=O)Nc1ccc(C2=NN(C(=O)c3ccc(Br)cc3)C(c3ccccc3)C2)cc1 (racemic)" attribute_measured="log10 IC50" numeric_value=1.52
compound="COC(=O)Nc1ccc(C2=NN(C(=O)c3ccc(Br)cc3)C(c3ccccc3)C2)cc1 (racemic)" attribute_measured="log10 IC50" numeric_value=3.32
compound="Cc1ccc(C(=O)N2N=C(c3ccc(NS(C)(=O)=O)cc3)CC2c2ccco2)cc1 (racemic)" attribute_measured="log10 IC50" numeric_value=4.20

# return log10 IC50 for each item in the list
1. CS(=O)(=O)Nc1ccc(C2=NN(C(=O)c3ccc(Br)cc3)C(c3ccco3)C2)cc1 (racemic)
2. CC(C)(C)OC(=O)Nc1cccc(C2=NN(C(=O)c3ccc(Br)cc3)C(c3ccccc3)C2)c1 (racemic)
3. CS(=O)(=O)Nc1ccc(C2=NN(C(=O)c3ccc(Cl)cc3)C(c3ccco3)C2)cc1 (racemic)

*A*
[3.39, 4.05, 3.43]

---

Biological target: Apoptosis regulator Bcl-2 (Homo sapiens, UniProt P10415)
Sequence (P10415 whole entry, the tested form may be a part): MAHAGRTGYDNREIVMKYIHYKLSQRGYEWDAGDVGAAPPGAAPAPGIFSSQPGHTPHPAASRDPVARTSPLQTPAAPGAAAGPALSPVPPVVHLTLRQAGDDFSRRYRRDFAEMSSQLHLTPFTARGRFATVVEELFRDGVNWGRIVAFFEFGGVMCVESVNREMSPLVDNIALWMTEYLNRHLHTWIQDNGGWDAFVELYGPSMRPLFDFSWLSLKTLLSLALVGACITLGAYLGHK
Experiment: Inhibition of biotin-linker-Beclin 1 BH3 peptide binding to human C-terminal 6His-tagged Bcl-2 (1 to 218 residues) expressed in Escherichia coli BL21 Star (DE3) pLysS measured after 3 hrs by AlphaLISA assay
ATTRIBUTE MEASURED: IC50 (nM)
One number for each entry, in nM.

// worked examples, IC50 included
molecule="CC(C)(C)OC(=O)Nc1ccc(C2=NN(C(=O)c3ccc(Br)cc3)C(c3ccccn3)C2)cc1 (racemic)" numeric_value=650
molecule="CC(C)(C)OC(=O)Nc1ccc(C2=NN(C(=O)c3ccc(Br)cc3)C(c3ccccc3)C2)cn1 (racemic)" numeric_value=309

Now let's try a different one.
*Q* Would you kindly share the measured IC50 for CC(C)(C)OC(=O)Nc1ccc(C2=NN(C(=O)c3ccc([N+](=O)[O-])cc3)C(c3ccccc3)C2)cc1 (racemic) ?
*A* 439
